Assay: Cmax in human plasma at 160 mg administered as single dose
Assay type: ADME, organism-based
Design: dose 160 mg
measured_quantity: Cmax (ng/mL)
I only need the number, in ng/mL, no unit after it.

What does the record list as Cmax for "Cc1ccc(CNC(=O)c2nn(-c3ccc(F)cc3)c(CC[C@@H](O)C[C@@H](O)CC(=O)O)c2C(C)C)cc1" ? 6810

---

Target: OATP2B1 (Homo sapiens)
Sequence (O94956 whole entry): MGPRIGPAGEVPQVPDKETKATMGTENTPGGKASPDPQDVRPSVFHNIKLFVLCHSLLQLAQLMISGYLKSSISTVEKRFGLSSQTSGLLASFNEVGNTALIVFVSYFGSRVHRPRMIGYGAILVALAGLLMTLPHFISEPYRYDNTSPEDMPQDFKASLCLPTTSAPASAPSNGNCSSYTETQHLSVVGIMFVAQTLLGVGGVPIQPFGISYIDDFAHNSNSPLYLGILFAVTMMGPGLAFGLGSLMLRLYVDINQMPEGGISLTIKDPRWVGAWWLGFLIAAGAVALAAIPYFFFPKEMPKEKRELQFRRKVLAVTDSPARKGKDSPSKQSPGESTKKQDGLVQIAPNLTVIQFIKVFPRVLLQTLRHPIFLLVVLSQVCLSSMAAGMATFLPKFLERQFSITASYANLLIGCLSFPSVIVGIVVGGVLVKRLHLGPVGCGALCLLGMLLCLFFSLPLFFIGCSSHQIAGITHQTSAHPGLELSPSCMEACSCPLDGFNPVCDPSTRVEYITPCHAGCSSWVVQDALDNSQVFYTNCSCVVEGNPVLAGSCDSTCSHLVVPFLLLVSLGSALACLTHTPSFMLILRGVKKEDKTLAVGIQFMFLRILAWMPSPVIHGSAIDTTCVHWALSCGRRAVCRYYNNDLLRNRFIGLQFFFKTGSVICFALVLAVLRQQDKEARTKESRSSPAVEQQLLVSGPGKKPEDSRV
Experiment: Drug uptake by human hepatic OATP2B1 transporter expressed in HEK293 cells at 10 uM relative to wild-type HEK293 cells
Assay type: ADME, cell-based
Conditions: HEK293 cells expressing OATP2B1, read-out: FC
measured_quantity: uptake ratio at 10 µM
Give a plain numeric answer without units written out.

What does the record list as uptake ratio at 10 µM for "O=C([O-])C[C@H](O)C[C@H](O)CCn1c(-c2ccc(F)cc2)nc(C(=O)NCc2cccc(F)c2)c1C1CC1.[Na+]" ? 6.8

What does the record list as uptake ratio at 10 µM for "CC(C)c1nc(N(C)S(C)(=O)=O)nc(-c2ccc(F)cc2)c1/C=C/[C@@H](O)C[C@@H](O)CC(=O)O" ? 6.6

What does the record list as uptake ratio at 10 µM for "Cc1ncc2n1-c1ccc(Cl)cc1C(c1ccccc1F)=NC2" ? 0.7

What does the record list as uptake ratio at 10 µM for "Cc1ccc(CNC(=O)c2nn(-c3ccc(F)cc3)c(CC[C@@H](O)C[C@@H](O)CC(=O)O)c2C(C)C)cc1" ? 1.4
